system: ScBzz1-D1
method_notes: SPOT peptide array binding signal intensity (averaged, normalized) (arbitrary units (background-subtracted, floor 0; scale differs between SH3 domains)); higher = stronger binding of the SH3 domain to the peptide
measured_quantity: SPOT peptide array binding signal intensity

These solved cases illustrate the format of a correct answer.
>>> result("NTMKKRPAPPSLPSL")
134
>>> result("VLRFLGFPLPIFEKG")
24
>>> result("EVTPKVPERPSRRKT")
57.5
>>> result("DLFKPLPEPPTELGR")
1

// moving on: another record for SPOT peptide array binding signal intensity
Bench note: what SPOT peptide array binding signal intensity did RKNRAPPQRPRFNRD show?
162
